Number of revertants per plate, Mean ± SD for assorted compounds
tested on: Vibrio harveyi BB7XM; assay: Vibrio harveyi mutagenicity assay, BB7XM; assay type: cell-based; conditions: mutagenicity, 40 ng/mL
property.measured: Number of revertants per plate, Mean ± SD

> print(dat)
                                   compound    measurement.target  reading
1  COc1nc2c(c(=O)n(C)c(=O)n2C)n1CCCC(=O)NCc1ccccc1 [Compound 3]  Vibrio harveyi BB7XM       35
2  COC(=O)Cn1c(OC)nc2c1c(=O)n(C)c(=O)n2C [Compound 2]  Vibrio harveyi BB7XM       53
3  COc1nc2c(c(=O)n(C)c(=O)n2C)n1CC(=O)O [Compound 1]  Vibrio harveyi BB7XM       37
4  COc1nc2c(c(=O)n(C)c(=O)n2C)n1CCCC(=O)N1CCN(c2ccccc2)CC1 [Compound 4]  Vibrio harveyi BB7XM       41

###

tested on: Salmonella typhimurium TA100; assay: Ames mutagenicity test; assay type: cell-based; details: TA100, 500 ng/mL (NQNO control stated as 40 ng/mL in method)
property.measured: Number of revertants per plate, Mean ± SD

> print(dat)
                                chem.smiles            measurement.target  reading
1  COc1nc2c(c(=O)n(C)c(=O)n2C)n1CCCC(=O)N1CCN(c2ccccc2)CC1  Salmonella typhimurium TA100       10
2     COC(=O)Cn1c(OC)nc2c1c(=O)n(C)c(=O)n2C  Salmonella typhimurium TA100       14
3      COc1nc2c(c(=O)n(C)c(=O)n2C)n1CC(=O)O  Salmonella typhimurium TA100       16
4  COc1nc2c(c(=O)n(C)c(=O)n2C)n1CCCC(=O)NCc1ccccc1  Salmonella typhimurium TA100        6

###

% of compound/metabolite in C. elegans for assorted compounds
tested on: Cunninghamella elegans 1906 DMS; assay: Cunninghamella biotransformation assay, C. elegans; format: in vitro ADME; conditions: 0.5 mg/mL, 7-day incubation, LC-MS/MS
property.measured: % of compound/metabolite in C. elegans (%)

> print(dat)
                                chem.smiles  reading
1  COc1nc2c(c(=O)n(C)c(=O)n2C)n1CCCC(=O)N1CCN(c2ccc(O)cc2)CC1     53.0
2  COc1nc2c(c(=O)n(C)c(=O)n2C)n1CCCC(=O)NCc1ccccc1     99.4
3  COc1nc2c(c(=O)n(C)c(=O)n2C)n1CCCC(=O)N1CCN(c2ccccc2)CC1     47.0

###

Test system: Vibrio harveyi BB7M
Test: Vibrio harveyi antimutagenicity assay against NQNO, BB7M
Assay type: cell-based
Conditions: compound 40 ng/mL + NQNO 40 ng/mL
Description: Four Vibrio harveyi strains were used in this study: a wild-type BB7 (naturally found in the Baltic Sea) and three genetically modified strains, namely BB7M (obtained by the introduction of pAB1273 plasmid containing the genes mucA and mucB to enhance the error-prone DNA repair), BB7X (hypersensitive to UV radiation after genetic modification with Tn5TpMCS), and BB7XM (containing the two abovementioned modifications). These strains were kindly provided by Prof. […]
property.measured: % inhibition of NQNO mutagenicity (%)

> print(dat)
                                   compound  measurement.units  reading
1  COC(=O)Cn1c(OC)nc2c1c(=O)n(C)c(=O)n2C [Compound 2]                  %       54
2  COc1nc2c(c(=O)n(C)c(=O)n2C)n1CCCC(=O)NCc1ccccc1 [Compound 3]                  %       50
3  COc1nc2c(c(=O)n(C)c(=O)n2C)n1CCCC(=O)N1CCN(c2ccccc2)CC1 [Compound 4]                  %       49
4  COc1nc2c(c(=O)n(C)c(=O)n2C)n1CC(=O)O [Compound 1]                  %       39

###

system: Vibrio harveyi BB7; details: mutagenicity, BB7, 40 ng/mL
Number of revertants per plate, Mean ± SD for assorted compounds
property.measured: Number of revertants per plate, Mean ± SD

> print(dat)
                                chem.smiles  reading
1      COc1nc2c(c(=O)n(C)c(=O)n2C)n1CC(=O)O       12
2  COc1nc2c(c(=O)n(C)c(=O)n2C)n1CCCC(=O)NCc1ccccc1       18
3     COC(=O)Cn1c(OC)nc2c1c(=O)n(C)c(=O)n2C       15
4  COc1nc2c(c(=O)n(C)c(=O)n2C)n1CCCC(=O)N1CCN(c2ccccc2)CC1       10

###

% of compound/metabolite in C. echinulata for assorted compounds
tested on: Cunninghamella echinulata NRRL 1384; assay: Cunninghamella biotransformation assay, C. echinulata; type: in vitro ADME; conditions: 0.5 mg/mL, 7-day incubation, LC-MS/MS
property.measured: % of compound/metabolite in C. echinulata

> print(dat)
                                chem.smiles  reading
1  COc1nc2c(c(=O)n(C)c(=O)n2C)n1CCCC(=O)NCc1ccc(O)cc1     4.2%
2  COc1nc2c(c(=O)n(C)c(=O)n2C)n1CCCC(=O)N1CCN(c2ccccc2)CC1    12.4%
3  COc1nc2c(c(=O)n(C)c(=O)n2C)n1CCCC(=O)NCc1cccc(O)c1     0.3%
4  COc1nc2c(c(=O)n(C)c(=O)n2C)n1CCCC(=O)NCc1ccccc1    92.4%
5    COc1nc2c(c(=O)n(C)c(=O)n2C)n1CCCC(N)=O     1.5%
6  COc1nc2c(c(=O)n(C)c(=O)n2C)n1CCCC(=O)NCc1ccccc1O     1.6%
7  COc1nc2c(c(=O)n(C)c(=O)n2C)n1CCCC(=O)N1CCN(c2ccc(O)cc2)CC1    87.6%

###

Test system: Salmonella typhimurium TA100
Experiment: Ames mutagenicity test
Format: cell-based
Conditions: TA100, 40 ng/mL, mutagenic if MI >2.0
Procedure: From them, 0.2 mM working solutions were prepared by dilution with water. […] In the Ames test, Salmonella typhimurium TA100 strain was used. This strain has a base-pair substitution that can be reverted by mutations at GC pairs. […] S. typhimurium was cultivated in a fresh medium 12 h prior to a test. […] Afterwards, the colonies were counted manually.
property.measured: MI (mutagenicity index)

> print(dat)
                                   compound            measurement.target  reading
1  COc1nc2c(c(=O)n(C)c(=O)n2C)n1CC(=O)O [Compound 1]  Salmonella typhimurium TA100      0.3
2  COc1nc2c(c(=O)n(C)c(=O)n2C)n1CCCC(=O)NCc1ccccc1 [Compound 3]  Salmonella typhimurium TA100      1.5
3  COC(=O)Cn1c(OC)nc2c1c(=O)n(C)c(=O)n2C [Compound 2]  Salmonella typhimurium TA100      0.3
4  COc1nc2c(c(=O)n(C)c(=O)n2C)n1CCCC(=O)N1CCN(c2ccccc2)CC1 [Compound 4]  Salmonella typhimurium TA100      1.3

###

MI (mutagenicity index) for assorted compounds
system: Salmonella typhimurium TA100; experiment: Ames mutagenicity test; assay type: cell-based; conditions: TA100, 500 ng/mL (NQNO control stated as 40 ng/mL in method)
property.measured: MI (mutagenicity index)

> print(dat)
                                   compound        property.measured  reading
1  COc1nc2c(c(=O)n(C)c(=O)n2C)n1CCCC(=O)NCc1ccccc1 [Compound 3]  MI (mutagenicity index)      0.2
2  COC(=O)Cn1c(OC)nc2c1c(=O)n(C)c(=O)n2C [Compound 2]  MI (mutagenicity index)      0.5
3  COc1nc2c(c(=O)n(C)c(=O)n2C)n1CC(=O)O [Compound 1]  MI (mutagenicity index)      0.6
4  COc1nc2c(c(=O)n(C)c(=O)n2C)n1CCCC(=O)N1CCN(c2ccccc2)CC1 [Compound 4]  MI (mutagenicity index)      0.4

###

MI (mutagenicity index) for assorted molecules
system: Vibrio harveyi BB7; conditions: BB7, 40 ng/mL; mutagenic if MI above 2.0
property.measured: MI (mutagenicity index)

> print(dat)
                                chem.smiles  reading
1  COc1nc2c(c(=O)n(C)c(=O)n2C)n1CCCC(=O)N1CCN(c2ccccc2)CC1      0.8
2      COc1nc2c(c(=O)n(C)c(=O)n2C)n1CC(=O)O      0.9
3     COC(=O)Cn1c(OC)nc2c1c(=O)n(C)c(=O)n2C      1.2
4  COc1nc2c(c(=O)n(C)c(=O)n2C)n1CCCC(=O)NCc1ccccc1      1.4
